System: spring wheat (TRZAS)
Assay: Postemergence greenhouse trial, % visual injury on spring wheat
Assay type: in vivo, Triticum aestivum
Details: TRZAS; 70 g/ha, applied alone
property.measured: % visual injury, Ob

COC(=O)c1nc(-c2ccc3sccc3c2)c(F)c(N)c1Cl : 70%
Nc1c(F)c(-c2ccc3ccoc3c2)nc(C(=O)O)c1Cl : 20%
Nc1c(F)c(-c2ccc3scnc3c2)nc(C(=O)O)c1Cl : 45%
CCCCCC(C)OC(=O)COc1ccc(Cl)c2cccnc12 (centres unmarked) [CQC-m, cloquintocet-mexyl, reference compound] : 0%
COc1c(N)nc(-c2ccc3sccc3c2)nc1C(=O)O : 50%

====

Test system: chickweed (STEME)
Test: Postemergence greenhouse trial, % visual injury on chickweed
Format: in vivo, Stellaria media
Details: alone, 35 g/ha
In plain terms, low % visual injury, Ob, meaning strictly below 70%, gives True, and everything else gives False.

Nc1c(F)c(-c2ccc3cc[nH]c3c2F)nc(C(=O)O)c1Cl : False
COC(=O)c1nc(-c2ccc3ccn(C(=O)C(C)(C)C)c3c2F)c(F)c(N)c1Cl : False
COC(=O)c1nc(-c2ccc3ccn(C(=O)C(C)C)c3c2F)c(F)c(N)c1Cl : False
CCCCCC(C)OC(=O)COc1ccc(Cl)c2cccnc12 (centres unmarked) [CQC-m, cloquintocet-mexyl, reference compound] : True

====

System: spring barley (HORVS)
Test: Postemergence greenhouse trial, % visual injury on spring barley
Format: in vivo, Hordeum vulgare
Conditions: HORVS; 17.5 g/ha, applied alone
Quick rule for you: % visual injury, Ob at 30% or higher means fulfilled, lower means not fulfilled.

COC(=O)c1nc(-c2ccc3sccc3c2)c(F)c(N)c1Cl : fulfilled
COc1c(N)nc(-c2ccc3sccc3c2)nc1C(=O)O : not fulfilled
Nc1c(F)c(-c2ccc3ccoc3c2)nc(C(=O)O)c1Cl : not fulfilled
CCCCCC(C)OC(=O)COc1ccc(Cl)c2cccnc12 (centres unmarked) [CQC-m, cloquintocet-mexyl, reference compound] : not fulfilled

====

System: lambsquarters (CHEAL)
Test: Postemergence greenhouse trial, % visual injury on lambsquarters
Type: in vivo, Chenopodium album
Conditions: Chenopodium album, post-emergence; alone, 35 g/ha; read-out: % visual injury, Ob
property.measured: pest or weed control at 35 g/ha (%)

COC(=O)c1nc(-c2ccc3ccn(C(=O)C(C)(C)C)c3c2F)c(F)c(N)c1Cl : 100
COCC(=O)n1ccc2ccc(-c3nc(C(=O)OC)c(Cl)c(N)c3F)c(F)c21 : 100
COC(=O)c1nc(-c2ccc3ccn(C(C)=O)c3c2F)c(F)c(N)c1Cl : 85
COC(=O)c1nc(-c2ccc3ccn(C(=O)C(C)C)c3c2F)c(F)c(N)c1Cl : 97
Nc1c(F)c(-c2ccc3cc[nH]c3c2F)nc(C(=O)OCc2ccccc2)c1Cl : 97
Nc1c(F)c(-c2ccc3cc[nH]c3c2F)nc(C(=O)O)c1Cl : 100
CCCCCC(C)OC(=O)COc1ccc(Cl)c2cccnc12 (stereo not shown) [CQC-m, cloquintocet-mexyl, reference compound] : 0

====

The following compounds are shown together with reported % visual injury, Ob values.
System: spring wheat (TRZAS)
Experiment: Postemergence greenhouse trial, % visual injury on spring wheat
Type: in vivo, Triticum aestivum
Details: TRZAS; compound 17.5 g/ha, CQC-m 0
property.measured: % visual injury, Ob (%)

CO/C=N/c1c(F)c(-c2ccc3cc[nH]c3c2F)nc(C(=O)OC)c1Cl : 40
COC(=O)c1nc(-c2ccc3cc[nH]c3c2F)c(F)c(/N=C/N(C)C)c1Cl : 10
COC(=O)c1nc(-c2ccc3cc[nH]c3c2F)c(F)c(N)c1OC : 42
CCCCOC(=O)c1nc(-c2ccc3cc[nH]c3c2F)c(F)c(N)c1Cl : 30
